- testedTarget: rat GHS-R (GHS receptor) expressed on CHO-GHSR62 cells (rat) (UniProt O08725)
- Sequence (O08725 whole entry): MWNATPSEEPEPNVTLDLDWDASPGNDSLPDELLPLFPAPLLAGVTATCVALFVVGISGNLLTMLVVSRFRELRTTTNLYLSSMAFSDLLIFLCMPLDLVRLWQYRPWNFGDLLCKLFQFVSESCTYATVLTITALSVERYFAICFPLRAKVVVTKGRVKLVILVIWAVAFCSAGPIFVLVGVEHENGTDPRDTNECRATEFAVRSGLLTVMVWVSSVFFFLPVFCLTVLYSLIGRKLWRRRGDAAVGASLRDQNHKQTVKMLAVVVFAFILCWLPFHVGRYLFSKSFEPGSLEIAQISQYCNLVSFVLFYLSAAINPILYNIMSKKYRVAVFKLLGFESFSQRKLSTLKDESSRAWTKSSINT
- measurementDescription: cell-based or functional assay
Square brackets hold non-standard residues; d marks the D form. Ends that are not written are not given here. * marks the point of attachment. Trt = c1ccc(C(c2ccccc2)(c2ccccc2)*)cc1; Aib = CC(C)(N)C(=O)O; Octyl = CCCCCCCC*
valueKind: Activity EC50 (nM)

GSXFLSPEHQRVQQRKESKKPPAKLQPR (position 3 (X) is 2-L-naphthylalanine (Nal)) [[2-^LNal^3]-hGhrelin] = 8.2
[Aib]H[dS](Octyl)[dF]K-NH2 (N-terminus assumed; SMILES CCCCCCCCOC[C@@H](NC(=O)[C@H](Cc1c[nH]cn1)NC(=O)C(C)(C)N)C(=O)N[C@H](Cc1ccccc1)C(=O)N[C@@H](CCCCN)C(N)=O) [[Aib^1,His^2,^DSer^3(Octyl),^DPhe^4,Lys^5]-Ghrelin (1-5)-amide] = 38
GSC(Trt)FLSPEHQRVQQRKESKKPPAKLQPR [[Cys^3(Trityl)]-hGhrelin] = 20
GSDFLSPEHQRVQQRKESKKPPAKLQPR (Asp 3 side-chain heptyl ester (O-C7H15)) [[Asp^3(O-Heptyl)]-hGhrelin] = 5.1
GSXFLSPEHQRVQQRKESKKPPAKLQPR (position 3 (X) is cyclohexylalanine (Cha)) [[Cha^3]-hGhrelin] = 19
GSDFLSPEHQRVQQRKESKKPPAKLQPR (Asp 3 side-chain heptylamide (NH-C7H15)) [[Asp^3(NH-Heptyl)]-hGhrelin] = 11
